Origin of values: PubChem BioAssay (NCI)

System: SNB-75 CNS
Procedure Text: NCI-60 one-dose screen, 48 h (100 = growth as untreated, 0 = no growth, -100 = all killed)
Condition Label: 10 µM unless noted
Method: Growth inhibition of the SNB-75 human tumor cell line is measured as a screen for anti-cancer activity. Cells are grown in 96 well plates and exposed to the test compound for 48 hours. Compounds are tested at a single concentration, which is 10^-5 M for most compounds. The reported endpoint is percent growth (GI% or GIPRCNT), where numbers from 0 - 100% represent growth inhibition, and numbers from -100% - 0 represent cell death. For example, a value of 40 represents 60% growth inhibition. […]
Compounds without any hit were thinned out: in the full panel of roughly 83,000, 20% have a hit.
Simple rule here: growth less than 90% is 1, otherwise 0.

# example entries with known answers
{"Smiles Record": "COc1ccc(C(=O)/C=C/c2cccc(Cl)c2)cc1S(N)(=O)=O", "System Under Test": "SNB-75 CNS", "Class Assignment": 1}
{"Smiles Record": "CCN(CC)c1ccnc(CNCCSC(c2ccccc2)(c2ccccc2)c2ccc(OC)cc2)c1", "System Under Test": "SNB-75 CNS", "Class Assignment": 1}

## Task Take the molecule C#CCOc1ccc(/C=N/Nc2nc(-c3cc4cc(OC)ccc4oc3=O)cs2)cc1OC and say whether its growth is less than 90%.
## Result 0

## Task Take the molecule CCN(CC)c1ccc(/C=N/Nc2nc(-c3ccc(Br)cc3)cs2)c(O)c1 and say whether its growth is less than 90%.
## Result 1

====

Test system: HS 578T breast
Procedure Text: NCI-60 one-dose screen, 48 h (100 = growth as untreated, 0 = no growth, -100 = all killed)
Condition Label: 10 µM unless noted
Compounds without any hit were thinned out: in the full panel of roughly 83,000, 20% have a hit.
Grouping rule (growth): lower bin = under 30%, middle bin = from 30% up to 80%, upper bin = 80% and over

{"Compound": "COc1ccc(C2=NN(C(C)=O)C(c3ccc(OCc4ccc(Cl)cc4)c(OC)c3)C2)cc1OC (stereo unspecified)", "Class Assignment": "middle bin"}
{"Compound": "Clc1cccc(N/N=C/c2c[nH]c3ccc(Br)cc23)n1", "Class Assignment": "middle bin"}
{"Compound": "O=c1oc2ccccc2cc1-c1csc(N2N=C(c3ccccc3)CC2c2ccc(N3CCOCC3)cc2)n1 (stereo unspecified)", "Class Assignment": "upper bin"}
{"Compound": "CCOC(=O)c1ccc(Nc2nc(NN)nc(-c3ccc(OC)cc3)c2C#N)cc1", "Class Assignment": "upper bin"}
{"Compound": "CN(C)c1ccnc(CNCCSC2(c3ccccc3)c3ccccc3C=Cc3ccccc32)c1", "Class Assignment": "lower bin"}
{"Compound": "COc1c(F)ccc(C(=O)Nc2ccc3nc(NC(=O)C4CCCN(S(=O)(=O)c5ccc(Cl)cc5)C4)sc3c2)c1F (stereo unspecified)", "Class Assignment": "middle bin"}

## Task Band assignment needed for COc1cc2oc(-c3cccc(C(=O)Nc4cccc([N+](=O)[O-])c4)c3)cc(=O)c2c(OC)c1OC please.
## Result lower bin

## Task Band assignment needed for COc1ccc(-c2ccc(SCC(=O)Nc3ccc(S(N)(=O)=O)cc3Br)nn2)cc1 please.
## Result middle bin

====

Tested on: HOP-62 NSCLC
Procedure Text: NCI-60 one-dose screen, 48 h (100 = growth as untreated, 0 = no growth, -100 = all killed)
Condition Label: 10 µM unless noted
About 83,000 compounds went through this panel and 20% of them were active in at least one assay; those are over-represented in the sample as a whole.
Simple rule here: growth less than 50% is class 1, otherwise class 0.

# example entries with known answers
{"Compound": "CCCCSc1nc(Nc2ccc(S(N)(=O)=O)cc2)c(C#N)c(-c2cc(OC)c(OC)c(OC)c2)n1", "Class Assignment": "class 0"}
{"Compound": "Nc1nnc(-c2c[nH]c3ncc(Br)cc23)c(-c2c[nH]c3ccc(F)cc23)n1", "Class Assignment": "class 1"}
{"Compound": "O=C(CSc1nc2ccccc2c(=O)[nH]1)NCCN1CCCCC1", "Class Assignment": "class 0"}
{"Compound": "COC(=O)/C=C/c1cccc2c1C(=O)NC(C)(c1cc3ccccc3oc1=O)N2 (stereo not drawn)", "Class Assignment": "class 0"}
{"Compound": "NS(=O)(=O)c1ccc(NNC(=O)CCC(=O)c2ccccc2)cc1", "Class Assignment": "class 0"}

## Task Take the compound CC(=O)Nc1ccc(-c2cn(-c3cccc(C(=O)Nc4ccc(N5CCN(C)CC5)cc4)c3)nn2)cn1 and say whether its growth is less than 50%.
## Result class 0

## Task Take the compound CC12CC[C@@H]3[C@]4(C)COC(c5cn[nH]c5-c5cccc(Cl)c5)O[C@@H]4CC[C@@]3(C)[C@@H]1CC(C1=CCOC1=O)O2 (stereo partly drawn) and say whether its growth is less than 50%.
## Result class 0

## Task Take the compound COc1ccc(C(=O)/C=C/c2cccc3ccccc23)cc1S(N)(=O)=O and say whether its growth is less than 50%.
## Result class 1

## Task Take the compound Cn1cc(-c2nc(N)nnc2-c2c[nH]c3ccc(Br)cc23)c2cc(Br)cnc21 and say whether its growth is less than 50%.
## Result class 1

## Task Take the compound CCCCCCCCc1ccc(S(=O)(=O)Nc2ccc(CC)cc2C(=O)O)cc1 and say whether its growth is less than 50%.
## Result class 0

## Task Take the compound COc1c(F)ccc(C(=O)Nc2ccc3nc(NC(=O)C4CCCN(S(=O)(=O)c5ccc(Cl)cc5)C4)sc3c2)c1F (stereo not drawn) and say whether its growth is less than 50%.
## Result class 0

====

Reported values of growth for individual entries
Test system: NCI-H322M lung
Procedure Text: NCI-60 one-dose screen, 48 h (100 = growth as untreated, 0 = no growth, -100 = all killed)
Condition Label: 10 µM unless noted
This is part of a sample that, as a whole, favours compounds with a hit. Of some 83,000 tested, about 20% had one in any assay.
Report the value in % with no unit label.

Please review the entries below; each comes with its answer.
{"Molecule": "CSc1ccc(NC(=O)c2ccc3nnn(/C(C#N)=C/c4ccccn4)c3c2)cc1", "System Under Test": "NCI-H322M lung", "Unit Text": "%", "growth": 3.57}
{"Molecule": "COc1ccc(C(SCCNCc2cc(N(C)C)ccn2)(c2ccccc2)c2ccccc2)cc1", "System Under Test": "NCI-H322M lung", "Unit Text": "%", "growth": 27.5}

Form: molecule = Cn1cc(-c2nc(N)nnc2-c2c[nH]c3ccc(Br)cc23)c2cc(Br)cnc21 ; growth = 37.8

Form: molecule = CCCCCCCCc1ccc(S(=O)(=O)Nc2ccc(CC)cc2C(=O)O)cc1 ; growth = 95.2

Form: molecule = COC(=O)/C=C/c1cccc2c1C(=O)NC(C)(c1cc3ccccc3oc1=O)N2 (stereo not given) ; growth = 93.7

Form: molecule = O=C(COc1ccc2c(c1)CCCC(=O)N2)NCc1ccccc1 ; growth = 112

Form: molecule = CCOC(=O)C1=C(N)N(c2ccccc2)C2=C(C(=O)CC(C)(C)C2)C1c1cccc(Cl)c1Cl (stereo not given) ; growth = 77.8

Form: molecule = CN1CCc2c(sc3ncnc(N/N=C/c4ccc(Cl)cc4Cl)c23)C1 ; growth = 29.2

Form: molecule = COc1ccc2oc3c4[nH]c5ccccc5c4c4c(c3c2c1)C(=O)N(C(=O)OC(C)(C)C)C4=O ; growth = 3.12

Form: molecule = Cc1cc2nc3c4ccccc4n(CC4=NCCN4)c3nc2cc1C ; growth = 22.3

Form: molecule = CC(=O)c1c(N)c(C#N)cn1-c1ccc(Cl)cc1Cl ; growth = 101

Form: molecule = CN(C)CCCNC(=O)c1cc(NC(=O)c2cc(NC(=O)c3ccc(/C=C/c4ccccc4)cc3)cn2C)cn1C ; growth = 73.4

Form: molecule = CC(C)CCNC(=O)N/C(N)=N/c1nc2ccccc2s1 ; growth = 83.1

Form: molecule = Clc1cccc(Cl)c1/C=C/c1cc(/C=C/c2ccc(Br)cc2)c2ccccc2n1 ; growth = 89.7

Form: molecule = COc1cc2c(c(OC)c1OC)C(=O)CC(c1cccc(NC(=O)c3cc(N)ccc3Cl)c1)O2 (stereo not given) ; growth = 89

Form: molecule = C#CCOc1ccc(/C=N/Nc2nc(-c3ccc(Cl)cc3)cs2)cc1OC ; growth = 89.3

Form: molecule = COc1ccc(NC(=O)Cn2c3c(sc2=O)[C@H]2[C@@H](O)[C@@H](O)[C@H](O)[C@@H]2CS3)cc1 ; growth = 101

Form: molecule = COc1ccc(C(=O)/C=C/c2cccc(Cl)c2)cc1S(N)(=O)=O ; growth = 10.7

Form: molecule = CCCCCCCCOc1cccc(S(=O)(=O)Nc2ccc(C)cc2C(=O)O)c1 ; growth = 94.5

Form: molecule = COc1ccc(C(=O)/C=C/c2cccc(Cl)c2Cl)cc1S(N)(=O)=O ; growth = 11.5
